assay details: qHTS Assay for Spectroscopic Profiling in 4-MU Spectral Region
assay conditions: compound autofluorescence, 340/450 nm, 4-MU equivalents; hits give high values
Among all 59,000 compounds or so, about 6,200 (11%) were called active. Not shown: some 9% with an inconclusive outcome. Only a selection was taken, and actives are over-represented in it overall.
measurement name: max dye-equivalent concentration

{"molecule": "COCC(C)NC(=O)c1ccc(Cl)c(Cl)c1 (stereo unspecified)", "max dye-equivalent concentration": "inactive"}
{"molecule": "COCCNC(=O)c1ccccc1-c1nc(-c2ccccc2Cl)no1", "max dye-equivalent concentration": "inactive"}
{"molecule": "COCCNC(=O)c1snc2ccc(Cl)cc12", "max dye-equivalent concentration": "49 nM (active)"}
{"molecule": "Cc1cccc(CNc2ccnc(-c3cccnc3)n2)c1", "max dye-equivalent concentration": "inactive"}
{"molecule": "COc1cccc(N(CC(=O)NC2CCCC2)C(=O)Cn2nnc(-c3ccc(C)cc3)n2)c1", "max dye-equivalent concentration": "inactive"}

Can you look up the measured max dye-equivalent concentration of O=C(Nc1ccc(Cl)cc1)c1ccsn1 for me?
inactive

* * *

assay details: qHTS Assay for Spectroscopic Profiling in 4-MU Spectral Region
assay conditions: compound autofluorescence, 340/450 nm, 4-MU equivalents
Hit rate of the full screen: of about 59,000 compounds, about 6,200 (11%) were called active. Inconclusive results (about 9%) are left out. Rule as the data show it: active = max dye-equivalent concentration above about 10 nM; inconclusive = mostly about 1.1 nM to 9.6 nM; inactive = weaker than that. For the sample, actives were picked, then their nearest neighbours and some compounds at random.
The reply should be one of these categories: active, inactive

Worked cases, answers included:
{"molecule": "COc1ccc2[nH]c3cc4c(=O)c5cc(OC)ccc5[nH]c4cc3c(=O)c2c1", "assigned class": "inactive"}
{"molecule": "CNC(=O)Nc1cc(C(C)(C)C)no1", "assigned class": "inactive"}
{"molecule": "C=CCn1c(=O)c2ccccc2n2c(SCC(=O)N3CCCc4ccccc43)nnc12", "assigned class": "inactive"}
{"molecule": "COc1cc(C2C(C#N)=C(C)NC3=C2C(=O)CC(C)(C)C3)ccc1O (stereo unspecified)", "assigned class": "active"}
{"molecule": "COc1cccc(OC)c1OCCN1CCN(C(=O)c2ccco2)CC1", "assigned class": "inactive"}

Look up the recorded call for COC(=O)CNS(=O)(=O)c1ccc(Cc2ccc(S(=O)(=O)NCC(=O)OC)cc2)cc1 in this test.
inactive

* * *

assay details: qHTS Assay for Spectroscopic Profiling in 4-MU Spectral Region
assay conditions: compound autofluorescence, 340/450 nm, 4-MU equivalents
Text: NIH Molecular Libraries Screening Centers Network [MLSCN] NIH Chemical Genomics Center [NCGC] […] While the most informative fluorescent profiling data set is obtained by performing a full excitation and emission scan of each well by using a monochromator-based plate reader, such an approach is practical only on a very limited scale as scanning each well requires long time. […]
In all, about 59,000 compounds went through this assay and about 6,200 (11%) were called active. Inconclusive results (about 9%) are left out. Rule as the data show it: active = max dye-equivalent concentration above about 10 nM; inconclusive = mostly about 1.1 nM to 9.6 nM; inactive = weaker than that. The entries come from a sample that favours actives as a whole.
Outcomes you can answer with include only these: y (active), n (inactive)

Worked examples follow.
{"molecule": "Cc1ccc(N2CCN(S(=O)(=O)N(C)C)CC2)cc1Cl", "assigned class": "n"}
{"molecule": "COc1cccc(Oc2ccc(N)cc2)c1", "assigned class": "n"}
{"molecule": "O=C(Oc1ccc2c(c1)CCC2)N1CCOCC1", "assigned class": "n"}
{"molecule": "CCOC(=O)N1CCN(C(=O)C2CCN(S(C)(=O)=O)CC2)CC1", "assigned class": "n"}
{"molecule": "CCC(=O)Nc1sc(C(=O)N2CCCCC2)c(C)c1C#N", "assigned class": "n"}

Give the logged outcome of this assay for the following molecule: CCNc1ncc2ncc(=O)n(CCc3ccccc3)c2n1
y

Lab log entry: COc1cccc(Cn2c(=O)c(-c3ccccc3)nc3cnc(OC)nc32)c1 — outcome as called in the assay?
n

Could you check what this test reported for CCOC(=O)CSc1nnc(NC(=O)c2cccc(S(=O)(=O)N3CCCCC3)c2)s1 ?
n

What did this assay record as the result for CCNc1ncc2nc(CCc3ccccc3)c(=O)n(-c3ccc(OC)cc3)c2n1 ?
y

Recorded test call requested for COc1cccc2cc(C(C)N(CCCN3CCOCC3)C(=O)Nc3ccc(Cl)cc3)oc12 (stereo not drawn)
n

* * *

assay details: qHTS Assay for Spectroscopic Profiling in 4-MU Spectral Region
assay conditions: compound autofluorescence, 340/450 nm, 4-MU equivalents
Screen size: about 59,000 compounds; about 6,200 (11%) were called active. Roughly 9% stayed inconclusive and do not appear here. Cut-off read from the data, not from the text of the source: active = max dye-equivalent concentration above about 10 nM; inconclusive = mostly about 1.1 nM to 9.6 nM; inactive = weaker than that. The sample as a whole holds a higher share of actives than the screen did.
Classes to choose from: 1 (yes) = active, 0 (no) = inactive

# example entries with known answers
{"compound": "CN(CCC#N)c1ncnc2scc(-c3ccccc3)c12", "assigned class": "0 (no)"}
{"compound": "N#CC1=C(N)C(C#N)(C#N)[C@H](c2ccsc2)[C@H]2COCC=C12", "assigned class": "1 (yes)"}
{"compound": "COC(=O)c1cccc(NC(=O)CN2CCC(NC(=O)c3cc(OC)c(OC)c(OC)c3)CC2)c1", "assigned class": "0 (no)"}
{"compound": "CCOC(=O)c1c(C)oc2ccc(OCC(=O)N(CC)CC)cc12", "assigned class": "0 (no)"}
{"compound": "COc1cc(C(=O)Nc2nccs2)cc(OC)c1OC", "assigned class": "0 (no)"}

# fetch the recorded call for CCOC(=O)c1ccc(NC(=O)CS(=O)(=O)c2cn(CC)c3ccccc23)cc1 here
0 (no)

What outcome does the record of this test show for CCOC(=O)N1CCN(C(=O)CN(C2CCCCC2)S(C)(=O)=O)CC1 ?
0 (no)

In this assay, the call recorded for O=c1[nH]c(=O)c2nc3ccccc3nc2[nH]1 was what?
1 (yes)

// param item: O=C(CN1CCOCC1)N1CCCc2c1c(=O)oc1ccc(OCc3ccccc3)cc21 ; yields the recorded call
1 (yes)

Please indicate how the test categorized Cc1cc2c(cc1C)NC1=C(N2)O[C@H](c2c[nH]c3ccc(COc4ccccc4)cc23)C1=O .
0 (no)

Query: recorded result category for CCCCOc1ccc(-c2nnc(-c3ccco3)o2)cc1 in this test
0 (no)

What classification did COc1cc(C(=O)Nc2oc(-c3ccccc3)c(-c3ccccc3)c2C#N)cc(OC)c1OC end up with in this test?
1 (yes)

* * *

assay details: qHTS Assay for Spectroscopic Profiling in 4-MU Spectral Region
assay conditions: compound autofluorescence, 340/450 nm, 4-MU equivalents; hits give high values
Among all 59,000 compounds or so, about 6,200 (11%) were called active. Inconclusive results (about 9%) are left out. The sample holds actives, similar compounds and a random draw of the others, so the mix is not that of the screen.
measurement name: max dye-equivalent concentration

Example entries and their recorded answers appear below.
{"compound": "COC(=O)c1ccccc1NC(=O)CN(Cc1ccccc1)S(C)(=O)=O", "max dye-equivalent concentration": "inactive"}
{"compound": "Cc1cccc2nc(CNc3ccc(F)cc3)cn12", "max dye-equivalent concentration": "inactive"}
{"compound": "COc1ccc(-c2nc(SCC(=O)N3CCOCC3)n[nH]2)cc1", "max dye-equivalent concentration": "inactive"}
{"compound": "CC1(C)CC(=O)c2cc(OCC(=O)NCC3CCCO3)ccc2O1 (stereo unspecified)", "max dye-equivalent concentration": "1700 nM (active)"}
{"compound": "CCOC(=O)c1c(C)[nH]c(C(=O)NCc2ccccc2OC)c1C", "max dye-equivalent concentration": "inactive"}
{"compound": "N#Cc1ccc(CN2CCCC3(CCN(C(=O)c4ccco4)CC3)C2)cc1", "max dye-equivalent concentration": "inactive"}

Look at this compound and give its reported max dye-equivalent concentration. CC(=O)Nc1ccc(S(=O)(=O)NCCc2ccccc2)cc1
inactive

What does the data say about its max dye-equivalent concentration? Entry: Cc1nn(-c2ccccc2)c(C)c1C(=O)OCC(=O)NC(=O)NC1CCCCC1
inactive

Entry under review: CC1(C)Cc2ccccc2-c2nc(CN3CCOCC3)[nH]c(=O)c21 . Reported max dye-equivalent concentration?
inactive

Give its max dye-equivalent concentration value. Item: COc1ccc(-c2ccnc(SCC(=O)N3CCOCC3)n2)cc1
110 nM (active)

Quick one: max dye-equivalent concentration of CCCCOC(=O)c1[nH]c(C)c(C(=O)OC)c1C ?
360 nM (active)

* * *

assay details: qHTS Assay for Spectroscopic Profiling in 4-MU Spectral Region
assay conditions: compound autofluorescence, 340/450 nm, 4-MU equivalents; hits give high values
The whole screen tested about 59,000 compounds, of which about 6,200 (11%) were called active. Another 9% or so got no clear call; they are omitted. Shown is part of a subset that was picked to be rich in actives.
measurement name: max dye-equivalent concentration

Answered cases to consult:
{"molecule": "O=C(O)CN1C(=O)CC(Cc2ccccc2)C1=O (stereo unspecified)", "max dye-equivalent concentration": "inactive"}
{"molecule": "Cc1c(C(=O)N2CCOCC2)[nH]c2ccc(OCc3ccccc3)cc12", "max dye-equivalent concentration": "inactive"}
{"molecule": "CS(=O)(=O)N(Cc1nc2sc3c(c2c(=O)[nH]1)CCCC3)C1CCCCC1", "max dye-equivalent concentration": "34 nM (active)"}
{"molecule": "O=C(NC1CCCCC1)C1c2ccccc2C(=O)N1Cc1ccco1 (stereo unspecified)", "max dye-equivalent concentration": "inactive"}
{"molecule": "COC(=O)c1[nH]c2ccccc2c1NC(=O)CN1CCCc2ccccc21", "max dye-equivalent concentration": "inactive"}

// switching to the query molecule
Requested field: max dye-equivalent concentration. Item: Cc1cc(NC(=O)c2cnn3cccnc23)n(-c2ccccc2)n1
inactive

// provenance: PubChem BioAssay AID589
